Values compiled from ChEMBL document CHEMBL1201862.

test system: M14; assay: NCI tumour cell line growth inhibition, 48 h
Calls of active or inactive are those of the source. No stated cut-off is given here; in the data, active = GI50 up to about 1.1 µM and inactive = higher.
Allowed answers: y for active, n for inactive

Give the logged outcome of this assay for the following molecule: Cc1cc(=O)oc2c(CNC(C(=O)O)C(C)O)c(O)ccc12 (stereo unspecified)
n

Next:
Give the logged outcome of this assay for the following molecule: CC1C(O)Oc2cc3c(cc2C1c1ccccc1O)OCO3 (stereo unspecified)
n

Give the logged outcome of this assay for the following molecule: FC(F)(F)C(C1=NC(C(F)(F)F)(C(F)(F)F)N=C(N2CCOCC2)O1)C(F)(F)F
n

Give the logged outcome of this assay for the following molecule: Cc1cn(S(=O)(=O)c2ccccc2)c2c(OCc3ccccc3)cc([N+](=O)[O-])cc12
n

Give the logged outcome of this assay for the following molecule: O=C1NC(=O)C(C(=O)C(=O)Nc2cccc(C(F)(F)F)c2)C(=O)N1
n

Give the logged outcome of this assay for the following molecule: COc1ccc(/C=C2\N=C(c3ccccc3)N(Nc3nnc(NN4C(=O)/C(=C/c5ccc(OC)cc5)N=C4c4ccccc4)c4ccccc34)C2=O)cc1
n

Give the logged outcome of this assay for the following molecule: COc1cc(NCc2ccc3n2-c2ccccc2OC3)cc(OC)c1OC
n

Give the logged outcome of this assay for the following molecule: CN(C)CCNC(=O)Cn1cnc2cccc([N+](=O)[O-])c2c1=O
n

Give the logged outcome of this assay for the following molecule: COc1cc(CC(C)C(C)Cc2ccc(O)c(OC)c2)ccc1O (stereo unspecified) [DIHYDROGUAIARETIC ACID]
n

Give the logged outcome of this assay for the following molecule: CCC12C=CCN(CCc3c([nH]c4ccccc34)/C=C\1)C2 (stereo unspecified)
n

Give the logged outcome of this assay for the following molecule: CCC/C(Cl)=N\OC(=O)Nc1ccc(F)c([N+](=O)[O-])c1
n

Give the logged outcome of this assay for the following molecule: Nc1nc(=O)c(/N=N/c2ccccc2)c(C(=O)O)[nH]1
n
